Measured values drawn from PubChem BioAssay (NCATS) for this set.

Reported activity change, negative = inhibition by item:
assay notes: qHTS to identify inhibitors of the type 1 interferon - major histocompatibility complex class I in skeletal muscle: primary screen against the NCATS Mechanism Interrogation Plate v5.0 (MIPE) Libary (AID 1347411);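 note: plate controls were vehicle for no effect and reference inhibitor for full effect; nearly all actives have a fitted effect of over 65% in size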
condition info: iHSKM cells + IFN-b, HiBiT-tagged MHC-I luminescence, 24 h; series mostly up to 45.8 µM
Results filed as inconclusive are left out. The source made the active and inactive calls. Calls come from the whole dose curve; as a rule, active = well fitted inhibition curve with a large enough effect; inconclusive = small, poorly fitted or top-dose-only effect; inactive = no such curve, though single readings can be large or run the other way.

Here's what some known entries look like.
>>> reported_result("Cn1cc(-c2nc(N[C@@H]3CCCC[C@@H]3N)c(F)c3c2C(=O)NC3)cn1")
"-16.3% [at 5.1 µM] (inactive)"
>>> reported_result("COCCNc1cc(NC(=O)N2CCCc3cc(CN4CCN(C)CC4=O)c(C=O)nc32)ncc1C#N")
"-1.84% [at 8.44 µM] (inactive)"
>>> reported_result("CN(C)CCNC(=O)COc1c2cccc1Cc1cccc(c1OCC(=O)NCCN(C)C)Cc1cccc(c1OCC(=O)NCCN(C)C)Cc1cccc(c1OCC(=O)NCCN(C)C)C2")
"-36% [at 8.44 µM] (inactive)"
>>> reported_result("CCn1c(=O)c(-c2ccc(-c3cncc(C)n3)cc2Cl)cc2cnc(NCCC3CCN(C)CC3)nc21")
"-29.5% [at 5.1 µM] (inactive)"

I have this compound here, "CNCCn1c(=O)c2cc(OC)c(OC)cc2c2cnc3cc4c(cc3c21)OCO4" , and I need its recorded activity change, negative = inhibition.
-8.45% [at 8.44 µM] (inactive)

I have this compound here, "COc1cc2c(cc1OC)CN(CCc1ccc(-n3nnc(-c4cc(OC)c(OC)cc4NC(=O)c4cc(=O)c5ccccc5o4)n3)cc1)CC2" , and I need its recorded activity change, negative = inhibition.
-5.16% [at 0.314 µM] (inactive)

---

system name: Glucocorticoid receptor (Homo sapiens) (UniProt P04150)
Sequence (P04150 whole entry, looked up): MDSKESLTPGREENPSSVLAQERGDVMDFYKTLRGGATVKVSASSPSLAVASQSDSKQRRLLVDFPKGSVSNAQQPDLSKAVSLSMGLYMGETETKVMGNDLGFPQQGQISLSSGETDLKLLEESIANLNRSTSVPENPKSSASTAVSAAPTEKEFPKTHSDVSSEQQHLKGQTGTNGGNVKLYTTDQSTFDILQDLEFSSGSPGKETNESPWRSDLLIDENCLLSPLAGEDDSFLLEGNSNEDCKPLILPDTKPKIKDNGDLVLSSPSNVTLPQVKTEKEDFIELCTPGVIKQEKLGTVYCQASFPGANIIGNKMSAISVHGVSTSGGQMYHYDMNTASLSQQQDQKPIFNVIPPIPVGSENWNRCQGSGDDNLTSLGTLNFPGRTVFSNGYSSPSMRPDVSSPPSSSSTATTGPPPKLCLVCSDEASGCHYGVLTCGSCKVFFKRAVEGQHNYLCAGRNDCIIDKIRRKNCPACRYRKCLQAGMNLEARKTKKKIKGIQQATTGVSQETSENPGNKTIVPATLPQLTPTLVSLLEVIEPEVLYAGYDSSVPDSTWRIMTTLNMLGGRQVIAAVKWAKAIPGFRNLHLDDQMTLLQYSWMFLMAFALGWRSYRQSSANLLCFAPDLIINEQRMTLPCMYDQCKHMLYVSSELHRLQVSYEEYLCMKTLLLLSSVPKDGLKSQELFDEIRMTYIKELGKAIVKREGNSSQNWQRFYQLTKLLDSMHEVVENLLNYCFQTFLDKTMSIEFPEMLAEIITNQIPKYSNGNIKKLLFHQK
assay notes: GR-EFC Redistribution (AID 451); note: potency is the fitted concentration of half-maximal effect
condition info: CHO-K1 GR-EFC translocation, beta-gal luminescence, 2 h
Activity calls are given as the source filed them. Calls come from the whole dose curve.
Reported Potency by item:

>>> reported_result("c1ccc2c(-n3ccnc3)nc(-c3ccoc3)nc2c1")
"> 46 µM (inactive)"
>>> reported_result("Cc1ccccc1-c1nccc(Nc2ccc(F)cc2)n1")
"> 46 µM (inactive)"
>>> reported_result("COc1ccc(C(=O)N2CCC3(CCN(C)CC3)CC2)cc1")
"> 46 µM (inactive)"
>>> reported_result("c1cncc(-c2cncnc2-n2ccnc2)c1")
"> 46 µM (inactive)"
>>> reported_result("CC(C)NC(=O)N1CCCC2(CCN(C(=O)c3cccc(F)c3)CC2)C1")
"> 46 µM (inactive)"

I have this compound here, "COc1ccc(CNc2ccnc(-c3ccccc3C(F)(F)F)n2)c(OC)c1" , and I need its recorded Potency.
> 46 µM (inactive)

I have this compound here, "CNc1ccnc(-c2ccccc2C(F)(F)F)n1" , and I need its recorded Potency.
> 46 µM (inactive)

---

Reported activation by item:
system name: Thyrotropin-releasing hormone receptor (Homo sapiens) (UniProt P34981)
Sequence (P34981 whole entry, looked up): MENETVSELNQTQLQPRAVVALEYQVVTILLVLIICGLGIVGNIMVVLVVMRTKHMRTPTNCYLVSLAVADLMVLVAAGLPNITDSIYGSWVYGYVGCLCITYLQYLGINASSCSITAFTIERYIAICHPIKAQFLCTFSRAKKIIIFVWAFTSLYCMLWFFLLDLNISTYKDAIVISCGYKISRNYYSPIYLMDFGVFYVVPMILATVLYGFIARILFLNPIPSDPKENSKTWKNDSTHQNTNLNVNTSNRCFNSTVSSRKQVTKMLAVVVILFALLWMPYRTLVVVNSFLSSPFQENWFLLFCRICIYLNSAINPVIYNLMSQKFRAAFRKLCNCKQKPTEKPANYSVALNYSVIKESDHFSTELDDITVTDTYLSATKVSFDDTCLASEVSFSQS
assay notes: qHTS for Small Molecule Agonists and Allosteric Enhancers of Human TRH Receptor: Validation Screen for Agonists (AID 493127);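 note: intracellular calcium rise by fluo-8 fluorescence before TRH EC20 addition; 0% is about no effect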
condition info: TRH receptor agonist cell assay; at 2 µM; stronger effect = higher value
Dear colleague, please return just the value in %, with no unit written.

>>> reported_result("CNC(=O)[C@H]1O[C@@H](n2cnc3c(NCc4ccc(N)cc4)ncnc32)[C@H](O)[C@H]1O")
-0.312
>>> reported_result("C[C@H]1CC2[C@@H]3CCC4=CC(=O)C=C[C@]4(C)[C@@]3(Cl)[C@@H](O)C[C@]2(C)[C@@]1(O)C(=O)CO (some centres undefined)")
0.25
>>> reported_result("CN1C[C@H](C(=O)N[C@]2(C)O[C@@]3(O)C4CCCN4C(=O)[C@H](Cc4ccccc4)N3C2=O)C[C@@H]2c3cccc4[nH]cc(c34)C[C@H]21 (some centres undefined)")
0.625
>>> reported_result("CN1CCc2cc(Cl)c(O)cc2C(c2ccccc2)C1 (centres undefined)")
1.12
>>> reported_result("Nc1ncnc2c1nc(Sc1ccc(Cl)cc1)n2[C@H]1O[C@@H]2COP(=O)(O)O[C@H]2[C@@H]1O")
1.31
>>> reported_result("NC(=NCCC[C@H](N)C(=O)O)NO")
0.812
>>> reported_result("Nc1ncnc2c1ncn2[C@@H]1O[C@H](CO)[C@H](O)[C@H]1O")
1.5
>>> reported_result("N=C(N)SCCc1cccc(CCSC(=N)N)c1")
0.562

Now for the compound whose activation we want.
I have this compound here, "OC[C@H]1O[C@@H](n2cnc3c(NC4CCCC4)ncnc32)[C@H](O)[C@H]1O" , and I need its recorded activation.
-0.438
